# hALPPL2 Kd annotations
system: Human ALPPL2 (Homo sapiens, UniProt P10696)
Sequence (P10696 with tags, fused parts or gaps): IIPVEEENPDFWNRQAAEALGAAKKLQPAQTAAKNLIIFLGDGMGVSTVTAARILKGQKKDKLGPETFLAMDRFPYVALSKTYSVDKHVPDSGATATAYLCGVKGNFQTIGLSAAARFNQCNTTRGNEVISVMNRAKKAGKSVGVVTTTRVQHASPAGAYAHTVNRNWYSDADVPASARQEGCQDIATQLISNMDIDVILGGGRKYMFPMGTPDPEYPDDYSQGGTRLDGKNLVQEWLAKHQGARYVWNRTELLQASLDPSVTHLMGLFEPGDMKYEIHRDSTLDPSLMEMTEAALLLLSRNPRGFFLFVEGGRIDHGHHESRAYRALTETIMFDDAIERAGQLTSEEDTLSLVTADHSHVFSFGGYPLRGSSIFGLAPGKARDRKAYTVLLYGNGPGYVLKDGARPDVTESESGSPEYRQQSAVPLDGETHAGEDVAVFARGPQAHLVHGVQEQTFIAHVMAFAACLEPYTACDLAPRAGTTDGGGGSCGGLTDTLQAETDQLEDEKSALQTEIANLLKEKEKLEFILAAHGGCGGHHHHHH
procedure-details: BLI binding kinetics, human ALPPL2 immobilised on AR2G sensors (KD / KD apparent)
experimental-context: VHH domains
readout-kind: hALPPL2 Kd (s⁻¹)

molecule	result-value
D04: ALPP/ALPPL2 targeting VHH domain, SEQ ID NO: 26 (protein) VHH: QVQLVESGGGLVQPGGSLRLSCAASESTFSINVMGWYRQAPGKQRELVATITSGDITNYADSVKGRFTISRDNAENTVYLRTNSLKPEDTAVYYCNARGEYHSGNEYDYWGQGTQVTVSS	0.00022
E06: ALPP/ALPPL2 targeting VHH domain, SEQ ID NO: 30 (protein) VHH: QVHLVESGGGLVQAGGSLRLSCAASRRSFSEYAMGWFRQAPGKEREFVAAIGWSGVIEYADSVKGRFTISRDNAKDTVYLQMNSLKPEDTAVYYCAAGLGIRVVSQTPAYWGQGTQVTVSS	0.0000875
B01: ALPP/ALPPL2 targeting VHH domain, SEQ ID NO: 20 (protein) VHH: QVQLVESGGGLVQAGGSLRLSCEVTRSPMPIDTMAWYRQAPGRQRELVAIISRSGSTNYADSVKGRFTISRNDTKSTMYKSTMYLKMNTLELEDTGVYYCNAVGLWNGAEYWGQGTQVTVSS	0.00014
